Taken from ChEMBL document CHEMBL1773021.

Biological target: UniProt P0C6X7
Assay: Inhibition of SARS coronavirus recombinant 3C-like protease expressed in Escherichia coli BL21(DE3) by Lineweaver-Burk plot analysis
measure_name: Ki (µM)

> print(dat)
                           substance.smiles  unit.abbrev  value.observed
1  Cc1ccc(C(=O)N/C(=C\c2ccc(-c3cccc([N+](=O)[O-])c3)o2)C(=O)NCCCN(C)C)cc1           µM            9.11
2  Cc1ccc(C(=O)N/C(=C\c2ccc(-c3ccccc3[N+](=O)[O-])o2)C(=O)NCCCN(C)C)cc1           µM            9.93

---

Biological target: Replicase polyprotein 1ab (Severe acute respiratory syndrome-related coronavirus, UniProt P0C6X7)
Test: Inhibition of SARS coronavirus recombinant 3C-like protease expressed in Escherichia coli BL21(DE3) after 30 mins by FRET based assay
pIC50: −log10 of the molar value.
Below, each entry is listed with its recorded pIC50.
measure_name: pIC50

> print(dat)
                                   compound  value.observed
1  Nc1nc(CSc2nnc(-c3cccc4ccccc34)n2-c2ccccc2)cs1            4.23
2  COc1cc(C2C(C(=O)c3ccc(OCC(C)C)cc3C)=C(O)C(=O)N2CCN(C)C)ccc1O (configuration not stated)            4.20
3  Cc1nc(C)c(C(=O)C2=C(O)C(=O)N(CCCN3CCOCC3)C2c2cccc([N+](=O)[O-])c2)s1 (configuration not stated)            3.99
4  Cc1ccc(C(=O)N/C(=C\c2ccc(-c3cccc([N+](=O)[O-])c3)o2)C(=O)NCCCN(C)C)cc1            4.41
5  O=C(CSc1ncnc2c1sc1nc(N3CCOCC3)c3c(c12)CCCC3)NCc1ccco1            4.04
6  Cc1ccc(C(=O)N/C(=C\c2ccc(-c3ccccc3[N+](=O)[O-])o2)C(=O)NCCCN(C)C)cc1            4.38
7  COc1cc(/C=N/NC(=O)/C(=C\c2ccccc2)NC(=O)c2ccccc2)cc(OC)c1O            4.11

---

Molecular target: Replicase polyprotein 1ab (Severe acute respiratory syndrome-related coronavirus)
Test: Inhibition of SARS coronavirus recombinant 3C-like protease expressed in Escherichia coli BL21(DE3) at 100 uM after 18 mins by FRET based assay
measure_name: inhibition (%)

> print(dat)
                                   compound  measure.name  unit.abbrev  value.observed
1  O=C(CSc1ncnc2c1sc1nc(N3CCOCC3)c3c(c12)CCCC3)NCc1ccco1    inhibition            %            53.3
2  COc1cc(C2C(C(=O)c3ccc(OCC(C)C)cc3C)=C(O)C(=O)N2CCN(C)C)ccc1O (configuration not stated)    inhibition            %            61.4
3  Cc1ccc(C(=O)N/C(=C\c2ccc(-c3cccc([N+](=O)[O-])c3)o2)C(=O)NCCCN(C)C)cc1    inhibition            %            82.6
4  Cc1ccc(C(=O)N/C(=C\c2ccc(-c3ccccc3[N+](=O)[O-])o2)C(=O)NCCCN(C)C)cc1    inhibition            %            81.4
5  COc1cc(/C=N/NC(=O)/C(=C\c2ccccc2)NC(=O)c2ccccc2)cc(OC)c1O    inhibition            %            56.1
6  Nc1nc(CSc2nnc(-c3cccc4ccccc34)n2-c2ccccc2)cs1    inhibition            %            58.2
7  Cc1nc(C)c(C(=O)C2=C(O)C(=O)N(CCCN3CCOCC3)C2c2cccc([N+](=O)[O-])c2)s1 (configuration not stated)    inhibition            %            49.1
